Field: pIC50. System: Tyrosine-protein kinase JAK2 (Homo sapiens, UniProt O60674). Provenance: assorted publications.
pIC50: −log10 of the molar value.

Previously resolved entries follow.
N#CCC1(n2cc(-c3ncnc4[nH]ccc34)cn2)CN(C2CCN(C(=O)Nc3cccc(Cl)c3)CC2)C1    ≥ 8.00
NC(=O)c1cc(-c2ccc(Cl)c(Cl)c2)nc2c1[nH]c1cc(OCCN3CCOCC3)ccc12    8.15
CN(c1ncnc2[nH]ccc12)C1CC2(C1)CN(C(=O)C1CCC(=O)CC1)C2    6.00 to 7.00

Ask: Look at this compound and give its reported pIC50. COc1ccc(-c2cc3nccn3c(-c3cnn(C4(CC#N)CN(S(=O)(=O)C5CC5)C4)c3)n2)cc1
Result: 7.00 to 8.00

Ask: Entry COc1cnc(Nc2ccc[nH]c2=O)nc1N[C@@H](C)c1ccc(F)cn1 please
Result: > 7.00

Ask: Entry C[S+]([O-])c1cnc(-c2cnc3[nH]ccc3c2N[C@@H]2CCCN(C(=O)CC#N)C2)s1 (some centres unmarked) please
Result: ≥ 8.00

Ask: Entry CCC1CN(C(=O)CC#N)CN1n1cnc2cnc3[nH]ccc3c21 (centres unmarked) please
Result: 7.88

Ask: Entry CCC(CC)n1cc(-c2nc(-c3cnn(C[C@@H](O)[C@@H](C)O)c3)cn3nccc23)cn1 please
Result: 7.00 to 8.00
